# Test target: p97 (Homo sapiens)
# Sequence (P55072 whole entry): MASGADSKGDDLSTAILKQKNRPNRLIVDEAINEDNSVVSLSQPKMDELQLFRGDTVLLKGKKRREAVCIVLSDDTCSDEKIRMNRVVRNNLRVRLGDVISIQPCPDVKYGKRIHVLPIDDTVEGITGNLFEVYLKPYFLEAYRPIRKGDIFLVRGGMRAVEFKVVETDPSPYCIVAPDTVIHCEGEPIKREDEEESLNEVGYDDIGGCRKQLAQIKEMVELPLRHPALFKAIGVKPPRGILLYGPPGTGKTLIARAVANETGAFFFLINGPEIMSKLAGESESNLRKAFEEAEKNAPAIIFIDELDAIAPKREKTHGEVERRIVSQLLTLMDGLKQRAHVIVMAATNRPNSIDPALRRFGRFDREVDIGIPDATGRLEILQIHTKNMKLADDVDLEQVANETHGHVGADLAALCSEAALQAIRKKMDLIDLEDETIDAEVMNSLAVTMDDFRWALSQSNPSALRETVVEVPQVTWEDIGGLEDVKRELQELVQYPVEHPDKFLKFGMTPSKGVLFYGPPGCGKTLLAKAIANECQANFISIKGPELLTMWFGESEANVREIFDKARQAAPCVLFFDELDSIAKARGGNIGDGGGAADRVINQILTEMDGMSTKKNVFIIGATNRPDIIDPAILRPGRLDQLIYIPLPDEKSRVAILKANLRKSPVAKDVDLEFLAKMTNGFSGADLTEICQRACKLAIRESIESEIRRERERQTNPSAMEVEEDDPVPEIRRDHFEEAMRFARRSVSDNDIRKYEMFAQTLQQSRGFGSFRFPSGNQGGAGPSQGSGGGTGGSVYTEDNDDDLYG
Measurement kind: IC50

Take a look at these entries with their results.
Fc1cc(-c2cnn(CCOCc3ccccc3)n2)c(F)cc1OCc1nnc(SC2C=CCCC2)n1-c1cccnc1 (stereo not drawn) [Entry 14] : < 1000 nM
[2H]C1([2H])C([2H])([2H])C([2H])([2H])C([2H])(Sc2nnc(COc3cc(F)c(-c4cnn(CC(=O)N5CCNCC5)n4)cc3F)n2-c2cccnc2)C1([2H])[2H] [Entry 5] : < 50 nM

// next item, IC50 requested
# value lookup — system p97 (Homo sapiens), readout IC50, item O=C(O)Cn1ncc(-c2cc(F)c(OCc3nnc(SC4C=CCCC4)n3-c3cccnc3)cc2F)n1 (stereo not drawn) [Entry 21]
< 100 nM
